tested on: MOLM-13 cells; experiment: MOLM-13 cellular assay (CellTiter-Glo cell viability); assay type: cell-based; settings: Homo sapiens, MOLM-13, 72 h, 72 hours exposure, cell viability by CellTiter-Glo
READOUT: pIC50
Answer as the number alone; pIC50 is minus log10 of concentration in mol/L.

- COMPOUND: "CCn1c(CO)nn(-c2cc3c(cc2F)c(=O)n(-c2c(F)cccc2Cl)c(=O)n3C(C)C)c1=O"
  READOUT: "pIC50"
  MEASUREMENT: 8.36
- COMPOUND: "C=C(C)C1CN(c2c(F)cccc2Cl)C(=O)c2ccc(-n3nc(CO)n(CC)c3=O)cc21 (racemic)"
  READOUT: "pIC50"
  MEASUREMENT: 9.00
- COMPOUND: "CCCCN1CN(c2c(F)cccc2Cl)C(=O)c2cc(F)c(-n3nc(CO)n(CC)c3=O)cc21"
  READOUT: "pIC50"
  MEASUREMENT: 7.99
- COMPOUND: "CCn1c(CO)nn(-c2cc3c(cc2F)C(=O)N(c2c(F)cccc2Cl)CN3CC2CCCCC2)c1=O"
  READOUT: "pIC50"
  MEASUREMENT: 7.64
- COMPOUND: "CCn1c(CO)nn(-c2ccc3c(c2)C(C(C)C(F)(F)F)CN(c2ccccc2F)C3=O)c1=O (stereo not shown)"
  READOUT: "pIC50"
  MEASUREMENT: 6.99

Next compound, please.
Answer briefly: pIC50 recorded on MOLM-13 cells for `CCn1c(CO)nn(-c2cc3c(cc2F)C(=O)N(c2c(C)ccnc2Cl)CN3C(C)C)c1=O`
7.44

---

system: MOLM-13 cells; experiment: MOLM-13 cellular assay (CellTiter-Glo cell viability); type: cell-based; conditions: Homo sapiens, MOLM-13, 72 h, 72 hours exposure, cell viability by CellTiter-Glo
I'd appreciate it if you marked entries condition met when IC50 is lower than 7 nM and condition not met when it is not.

- COMPOUND: "CCn1c(CO)nn(-c2cc3c(cc2F)C(=O)N(c2c(F)cccc2Cl)CN3C(C)C)c1=O [Example 1]"
  ASSIGNED CLASS: "condition met"
- COMPOUND: "CCCN1CN(c2c(F)cccc2Cl)C(=O)c2cc(F)c(-n3nc(CO)n(CC)c3=O)cc21 [Example 22]"
  ASSIGNED CLASS: "condition met"
- COMPOUND: "CCn1c(CO)nn(-c2cc3c(cc2F)C(=O)N(c2cc(C)ccc2F)CN3C(C)C)c1=O [Example 26]"
  ASSIGNED CLASS: "condition not met"
- COMPOUND: "CCn1c(CO)nn(-c2nc3c(cc2F)C(=O)N(c2c(F)cccc2Cl)CN3C2CCOCC2)c1=O [Example 6]"
  ASSIGNED CLASS: "condition not met"
- COMPOUND: "CCC[C@H](C)N1CN(c2c(F)cccc2Cl)C(=O)c2cc(F)c(-n3nc(CO)n(CC)c3=O)cc21 [Example 15]"
  ASSIGNED CLASS: "condition met"

Would you kindly verify if IC50 of C=C(C)C1CN(c2c(Cl)ccnc2C)C(=O)c2cc(F)c(-n3nc(CO)n(CC)c3=O)cc21 (racemic) [Example 25] is strictly less than 7 nM?
condition not met

Confirm or reject: IC50 of CCn1c(CO)nn(-c2nc3c(cc2F)C(=O)N(c2c(F)cccc2Cl)CN3[C@@H](C)C2OCCCO2)c1=O [Example 23] lies strictly below 7 nM
condition met
